- test.details: recombinant barcode read abundance after kanamycin selection (control-corrected) (log10(CPM+1)); higher = more efficient recombination; sequences stand for … in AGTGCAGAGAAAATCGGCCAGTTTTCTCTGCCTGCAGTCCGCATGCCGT…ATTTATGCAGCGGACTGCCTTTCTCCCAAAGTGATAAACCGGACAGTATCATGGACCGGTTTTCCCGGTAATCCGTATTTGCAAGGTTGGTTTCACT; site = the 11-nt target
Please respond with reported recombinant barcode read abundance (log10) for every item in the list.
One number for each entry.

INSERT INTO assay_data (seq_text, reported_measurement) VALUES
  ('GGGCGTGCTTGGGTTCTAACCTGTTGCCTTG [GGGCGTGCTAG_LTGcore_CT_RTGcore_CA] (site GGGCGTGCTAG) (LTG core: CT, RTG core: CA)', 0.0774),
  ('CGCGCCCTGTGGGTTCTAACCTGTTGCGGCA [CGCGCCCCTCC_LTGcore_TG_RTGcore_TG] (site CGCGCCCCTCC) (LTG core: TG, RTG core: TG)', 0.0883),
  ('TAAGAATCTTGGGTTCTAACCTGTTGCCTAT [TAAGAATCTAG_LTGcore_CT_RTGcore_AT] (site TAAGAATCTAG) (LTG core: CT, RTG core: AT)', 0.0438),
  ('ACGGGACAATGGGTTCTAACCTGTTGCAGTT [ACGGGACCTCT_LTGcore_AA_RTGcore_AA] (site ACGGGACCTCT) (LTG core: AA, RTG core: AA)', 0.298);

Now let's try a different one.
Query string: Which recombinant barcode read abundance (log10) value belongs to GGTGCCCTATGGGTTCTAACCTGTTGCCGTA [GGTGCCCCTCG_LTGcore_TA_RTGcore_TA] (site GGTGCCCCTCG) (LTG core: TA, RTG core: TA) ?
Result string: 0.298

---

- test.details: recombinant UMI read abundance after kanamycin selection (control-corrected) (log10(CPM+1)); higher = more efficient recombination; extreme values may be limits of the assay; sequences stand for … in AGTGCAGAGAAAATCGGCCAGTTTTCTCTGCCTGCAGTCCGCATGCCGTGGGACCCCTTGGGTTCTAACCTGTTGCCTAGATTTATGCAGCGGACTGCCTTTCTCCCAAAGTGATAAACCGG…AGGTTGGTTTCACT; site = the 11-nt donor
Please respond with reported recombinant UMI read abundance (log10) for every item in the list.
One number for each entry.

Observe how each entry below is paired with its result.
INSERT INTO results (seq_text, reported_measurement) VALUES
  ('AGAAAGGCATGGACCGGTTTTCCCGGTAATCCGTATTTGCT (site AAAAAGGCTAG)', 0),
  ('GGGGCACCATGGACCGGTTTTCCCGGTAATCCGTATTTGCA (site GGTGCACCTTG)', 0),
  ('GTTGGAGCATGGACCGGTTTTCCCGGTAATCCGTATTTGCA (site GTTAGAGCTTG)', 2.17);

Provide recombinant UMI read abundance (log10) values for the following items, in order.
1. CGAAATCCATGGACCGGTTTTCCCGGTAATCCGTATTTGTT (site CGCAATCCTAA)
2. ATTGCCACATGGACCGGTTTTCCCGGTAATCCGTATTTGCC (site ATTGCCACTGG)

Result string:
1: 0; 2: 1.95
